Run Description: total protein half-life in vivo (active degradation + dilution); higher = more stable protein
Condition: E. coli NCM3722 delta-smpB; growth: N-lim chemostat; doubling time 6 h
List of total protein half-life in vivo values.
Reported Metric: total protein half-life in vivo (h)

Seq String	Number
MMNFNNVFRWHLPFLFLVLLTFRAAAADTLLILGDSLSAGYRMSASAAWPALLNDKWQSKTSVVNASISGDTSQQGLARLPALLKQHQPRWVLVELGGNDGLRGFQPQQTEQTLRQILQDVKAANAEPLLMQIRLPANYGRRYNEAFSAIYPKLAKEFDVPLLPFFMEEVYLKPQWMQDDGIHPNRDAQPFIADWMAKQLQPLVNHDS [P0ADA1]	4.99
MSTFKPLKTLTSRRQVLKAGLAALTLSGMSQAIAKDELLKTSNGHSKPKAKKSGGKRVVVLDPGHGGIDTGAIGRNGSKEKHVVLAIAKNVRSILRNHGIDARLTRSGDTFIPLYDRVEIAHKHGADLFMSIHADGFTNPKAAGASVFALSNRGASSAMAKYLSERENRADEVAGKKATDKDHLLQQVLFDLVQTDTIKNSLTLGSHILKKIKPVHKLHSRNTEQAAFVVLKSPSVPSVLVETSFITNPEEERLLGTAAFRQKIATAIAEGVISYFHWFDNQKAHSKKR	4.41

These measurements were taken from the supplement of paper PMC11246515.
